Task for the reader: assign each of the following sequences its reported shrunken log2 fold change.
System: Escherichia coli TOP10
Protocol summary: shrunken log2 fold change of peptide-encoding DNA abundance (4.5 h post-induction vs induction); higher = less antimicrobial activity (less host growth inhibition)
Condition summary: time post-induction: 4.5 h; library: site-saturation at positions 5, 18, 19, 20

Query block: Any idea what its shrunken log2 fold change is? The sequence is "RRIRKRPPRLPRPRPRPDNDPRP"
Result block: -0.00188

Query block: Same again, this time with "RRIRERPPRLPRPRPRPCAVPRP"
Result block: -0.0406

Query block: Same again, this time with "RRIRDRPPRLPRPRPRPYMEPRP"
Result block: -0.000464

Query block: Same again, this time with "RRIRNRPPRLPRPRPRPEDRPRP"
Result block: 0.0787

Query block: Same again, this time with "RRIRERPPRLPRPRPRPLYHPRP"
Result block: -0.419

Query block: Same again, this time with "RRIRPRPPRLPRPRPRPRMYPRP"
Result block: -0.128

Query block: Same again, this time with "RRIRLRPPRLPRPRPRPNVNPRP"
Result block: -0.28

Query block: Same again, this time with "RRIRKRPPRLPRPRPRPKIMPRP"
Result block: 0.193

Query block: Same again, this time with "RRIRNRPPRLPRPRPRPVPGPRP"
Result block: 0.176

Query block: Same again, this time with "RRIRERPPRLPRPRPRPHHTPRP"
Result block: -0.268

Query block: Same again, this time with "RRIRGRPPRLPRPRPRPGTYPRP"
Result block: -0.201

Query block: Same again, this time with "RRIRGRPPRLPRPRPRPSQSPRP"
Result block: 0.0755

Query block: Same again, this time with "RRIRGRPPRLPRPRPRPTAPPRP"
Result block: 0.71

Query block: Same again, this time with "RRIRHRPPRLPRPRPRPAHNPRP"
Result block: -0.366

Query block: Same again, this time with "RRIRERPPRLPRPRPRPPCKPRP"
Result block: -0.208

###

Tested on: Escherichia coli TOP10;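 further: peptides expressed intracellularly from a pBAD plasmid library in pooled LB shake-flask culture, induced with 0.3% L-arabinose, DNA abundance read by NGS, three biological replicates, DESeq2 with apeglm shrinkage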
Protocol summary: shrunken log2 fold change of peptide-encoding DNA abundance (4.5 h post-induction vs induction); higher = less antimicrobial activity (less host growth inhibition)
Condition summary: time post-induction: 4.5 h; library: site-saturation at positions 5, 18, 19, 20
Quantity kind: shrunken log2 fold change
Please respond with just the number, no unit label.

Query block: Any idea what its shrunken log2 fold change is? The sequence is "RRIRMRPPRLPRPRPRPVSKPRP"
Result block: 0.0965

Query block: Same again, this time with "RRIRIRPPRLPRPRPRPTLEPRP"
Result block: 2.35

Query block: Same again, this time with "RRIRNRPPRLPRPRPRPITQPRP"
Result block: -0.187

Query block: Same again, this time with "RRIRARPPRLPRPRPRPSKTPRP"
Result block: 0.314

Query block: Same again, this time with "RRIRLRPPRLPRPRPRPTFQPRP"
Result block: -0.098

Query block: Same again, this time with "RRIRVRPPRLPRPRPRPVMNPRP"
Result block: -0.19

Query block: Same again, this time with "RRIRHRPPRLPRPRPRPVVFPRP"
Result block: -0.147

Query block: Same again, this time with "RRIRIRPPRLPRPRPRPPKRPRP"
Result block: 0.0802

Query block: Same again, this time with "RRIRCRPPRLPRPRPRPVHRPRP"
Result block: -0.319

Query block: Same again, this time with "RRIRRRPPRLPRPRPRPLFKPRP"
Result block: -0.00471

Query block: Same again, this time with "RRIRARPPRLPRPRPRPNWNPRP"
Result block: -0.0314

Query block: Same again, this time with "RRIRCRPPRLPRPRPRPDSCPRP"
Result block: 0.0373

Query block: Same again, this time with "RRIRKRPPRLPRPRPRPEILPRP"
Result block: 0.728

Query block: Same again, this time with "RRIRWRPPRLPRPRPRPASCPRP"
Result block: 0.241

Query block: Same again, this time with "RRIRIRPPRLPRPRPRPDVDPRP"
Result block: -0.297
